# reported IC50; entries follow
biological target: BLK (Homo sapiens (Human)); assay: BLK kinase activity assay (Caliper); type: biochemical; details: read-out: Inhibitory activity on kinase (IC50, nM) BLK
Sequence (P51451 whole entry): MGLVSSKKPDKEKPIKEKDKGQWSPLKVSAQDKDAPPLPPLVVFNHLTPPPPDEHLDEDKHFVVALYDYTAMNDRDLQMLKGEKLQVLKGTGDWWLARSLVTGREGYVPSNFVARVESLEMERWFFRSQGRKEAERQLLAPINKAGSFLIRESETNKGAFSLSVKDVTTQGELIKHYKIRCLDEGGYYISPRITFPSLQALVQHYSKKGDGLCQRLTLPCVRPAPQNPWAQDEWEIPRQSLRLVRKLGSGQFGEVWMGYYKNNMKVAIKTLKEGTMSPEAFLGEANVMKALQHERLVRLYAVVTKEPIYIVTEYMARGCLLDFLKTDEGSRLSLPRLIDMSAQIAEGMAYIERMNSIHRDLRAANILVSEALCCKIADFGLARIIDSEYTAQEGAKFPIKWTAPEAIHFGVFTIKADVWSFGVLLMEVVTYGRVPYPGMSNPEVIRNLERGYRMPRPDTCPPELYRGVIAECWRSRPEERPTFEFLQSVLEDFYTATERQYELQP
MEASUREMENT NAME: IC50

> print(dat)
                            structure.smiles  reported.value
 1  CCC(=O)Nc1ccc(-n2c(=O)cnc3cnc(Nc4ccc(OC)cc4)nc32)cc1      > 10000 nM
 2  C=CC(=O)Nc1cccc(-n2c(=O)cnc3cnc(Nc4ccc(NC(C)=O)cc4)nc32)c1          148 nM
 3  C=CC(=O)Nc1cccc(-n2c(=O)cnc3cnc(Nc4ccc(N5CCCCC5)cc4)nc32)c1           83 nM
 4  CCC(=O)Nc1cccc(-n2c(=O)cnc3cnc(Nc4ccc(OC)cc4)nc32)c1      > 10000 nM
 5  C=CC(=O)Nc1cccc(-n2c(=O)cnc3cnc(Nc4ccc(OC)cc4)nc32)c1           69 nM
 6  C=CC(=O)Oc1ccc(-n2c(=O)cnc3cnc(Nc4ccc(OC)cc4)nc32)cc1           89 nM
 7  C=CC(=O)Nc1ccc(-n2c(=O)c(C)nc3cnc(Nc4ccc(OC)cc4)nc32)cc1      > 10000 nM
 8  CN(C)C/C=C/C(=O)Nc1ccc(-n2c(=O)cnc3cnc(Nc4ccccc4)nc32)cc1         6320 nM
 9  COc1ccc(Nc2ncc3ncc(=O)n(-c4cccc(NC(=O)/C=C/CN(C)C)c4)c3n2)cc1          106 nM
10  COc1ccc(Nc2ncc3ncc(=O)n(-c4cccc(N)c4)c3n2)cc1      > 10000 nM
11  C=CC(=O)Nc1cccc(-n2c(=O)c(C)nc3cnc(Nc4ccc(OC)cc4)nc32)c1           96 nM
12  COc1ccc(-n2c(=O)cnc3cnc(Nc4ccc(N)cc4)nc32)cc1      > 10000 nM
13  C=CC(=O)Nc1ccc(Nc2ncc3ncc(=O)n(-c4ccc(OC)cc4)c3n2)cc1      > 10000 nM
14  C=CC(=O)Nc1ccc(-n2c(=O)cnc3cnc(Nc4ccc(OC)cc4)nc32)cc1         3040 nM
15  COc1ccc(Nc2ncc3ncc(=O)n(-c4ccc(N)cc4)c3n2)cc1      > 10000 nM
16  C=CC(=O)Nc1cccc(-n2c(=O)cnc3cnc(Nc4ccc(N5CCN(C)CC5)cc4)nc32)c1         < 14 nM

* * *

target: FLT3 (Homo sapiens (Human)); assay: FLT3 kinase activity assay (Caliper); type: biochemical; conditions: read-out: Inhibitory activity on kinase (IC50, nM) FLT3
Sequence (P36888 27-993): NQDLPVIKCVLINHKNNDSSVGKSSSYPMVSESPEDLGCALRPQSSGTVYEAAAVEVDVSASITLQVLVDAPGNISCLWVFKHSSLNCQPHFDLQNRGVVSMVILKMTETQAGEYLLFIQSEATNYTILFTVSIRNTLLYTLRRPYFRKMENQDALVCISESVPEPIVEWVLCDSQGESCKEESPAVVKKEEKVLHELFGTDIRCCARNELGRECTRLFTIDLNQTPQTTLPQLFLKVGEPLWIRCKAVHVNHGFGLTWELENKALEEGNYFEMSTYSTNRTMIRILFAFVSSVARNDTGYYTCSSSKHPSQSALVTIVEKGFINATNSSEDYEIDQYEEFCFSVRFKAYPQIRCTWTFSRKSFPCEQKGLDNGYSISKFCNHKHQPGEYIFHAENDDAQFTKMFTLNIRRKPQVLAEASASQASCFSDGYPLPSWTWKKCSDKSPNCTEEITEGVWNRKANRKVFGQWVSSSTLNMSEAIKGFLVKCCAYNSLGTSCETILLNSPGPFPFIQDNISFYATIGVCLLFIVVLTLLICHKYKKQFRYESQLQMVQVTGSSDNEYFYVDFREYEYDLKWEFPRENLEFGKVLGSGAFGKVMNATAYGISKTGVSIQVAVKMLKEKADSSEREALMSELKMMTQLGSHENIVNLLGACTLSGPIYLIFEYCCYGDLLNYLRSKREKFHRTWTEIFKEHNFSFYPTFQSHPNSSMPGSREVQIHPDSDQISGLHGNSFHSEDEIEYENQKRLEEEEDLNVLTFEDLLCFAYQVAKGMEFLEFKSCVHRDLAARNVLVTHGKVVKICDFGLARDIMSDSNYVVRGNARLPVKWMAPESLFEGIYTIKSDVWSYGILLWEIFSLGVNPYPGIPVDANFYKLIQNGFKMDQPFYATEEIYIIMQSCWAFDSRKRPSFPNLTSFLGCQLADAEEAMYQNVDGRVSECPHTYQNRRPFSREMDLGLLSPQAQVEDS
MEASUREMENT NAME: IC50

> print(dat)
                           structure.smiles          experimental.target  measurement.name  reported.value
1  C=CC(=O)Nc1cccc(-n2c(=O)cnc3cnc(Nc4ccc(N5CCOCC5)cc4)nc32)c1  FLT3 (Homo sapiens (Human))              IC50          798 nM
2  C=CC(=O)Oc1ccc(-n2c(=O)cnc3cnc(Nc4ccc(OC)cc4)nc32)cc1  FLT3 (Homo sapiens (Human))              IC50           48 nM
3  C=CC(=O)Nc1cccc(-n2c(=O)cnc3cnc(Nc4ccc(Cl)cc4)nc32)c1  FLT3 (Homo sapiens (Human))              IC50         2820 nM
4  COc1ccc(-n2c(=O)cnc3cnc(Nc4cccc(N)c4)nc32)cc1  FLT3 (Homo sapiens (Human))              IC50           34 nM

* * *

molecular target: EGFR-L858R/T790M (Homo sapiens (Human), UniProt P00533, L858R/T790M); assay: In vitro EGFR kinase activity assay (Z'-Lyte); format: biochemical; conditions: read-out: Inhibitory activity on EGFR kinase (IC50, nM) T790M/L858R;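 note: Cell-free kinase reaction with peptide substrate and ATP, 1.5 h at room temperature, development cleaving unphosphorylated peptide, 10-point dilution 0.051–1000 nM, phosphopeptide as 100% phosphorylation control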
Sequence (P00533 25-1210 T790M/L858R): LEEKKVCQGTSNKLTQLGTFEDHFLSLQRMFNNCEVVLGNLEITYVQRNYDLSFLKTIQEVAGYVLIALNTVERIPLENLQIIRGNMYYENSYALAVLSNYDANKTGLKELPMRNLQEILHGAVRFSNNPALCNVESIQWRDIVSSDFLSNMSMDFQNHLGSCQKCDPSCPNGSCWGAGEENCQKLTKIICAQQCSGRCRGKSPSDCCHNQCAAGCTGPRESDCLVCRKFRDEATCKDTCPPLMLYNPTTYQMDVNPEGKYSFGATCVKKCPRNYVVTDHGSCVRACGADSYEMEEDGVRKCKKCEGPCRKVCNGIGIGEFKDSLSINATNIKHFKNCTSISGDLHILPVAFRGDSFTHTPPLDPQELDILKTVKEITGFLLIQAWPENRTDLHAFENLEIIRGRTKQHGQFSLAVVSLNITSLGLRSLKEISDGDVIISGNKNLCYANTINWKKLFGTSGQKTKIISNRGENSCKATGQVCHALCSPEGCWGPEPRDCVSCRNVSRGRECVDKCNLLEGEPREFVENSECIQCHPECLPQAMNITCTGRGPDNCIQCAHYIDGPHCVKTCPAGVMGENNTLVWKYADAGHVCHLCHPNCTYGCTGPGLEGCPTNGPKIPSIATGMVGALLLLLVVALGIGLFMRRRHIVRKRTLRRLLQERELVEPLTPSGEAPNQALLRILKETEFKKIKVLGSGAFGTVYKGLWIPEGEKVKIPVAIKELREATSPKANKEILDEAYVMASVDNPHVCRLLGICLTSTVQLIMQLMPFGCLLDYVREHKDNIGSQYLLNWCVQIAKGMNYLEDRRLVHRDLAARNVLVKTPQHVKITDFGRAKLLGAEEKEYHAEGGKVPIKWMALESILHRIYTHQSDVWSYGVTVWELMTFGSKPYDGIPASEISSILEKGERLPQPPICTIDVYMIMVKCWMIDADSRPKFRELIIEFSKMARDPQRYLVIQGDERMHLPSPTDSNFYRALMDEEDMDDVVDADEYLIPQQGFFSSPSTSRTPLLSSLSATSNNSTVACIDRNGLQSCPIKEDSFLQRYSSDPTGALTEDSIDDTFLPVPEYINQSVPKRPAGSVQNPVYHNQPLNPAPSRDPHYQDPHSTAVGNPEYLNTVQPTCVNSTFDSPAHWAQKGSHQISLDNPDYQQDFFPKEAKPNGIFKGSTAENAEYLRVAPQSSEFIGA
MEASUREMENT NAME: IC50 (nM)

> print(dat)
                                   molecule                       experimental.target  measurement.name  censoring.qualifier  reported.value
1  C=CC(=O)Nc1cccc(-n2c(=O)cnc3cnc(Nc4ccc(OC)cc4)nc32)c1 [Compound 006]  EGFR-L858R/T790M (Homo sapiens (Human), UniProt P00533, L858R/T790M)              IC50                    =             8.4
2  C=CC(=O)Nc1cccc(-n2c(=O)cnc3cnc(Nc4ccc(N5CCOCC5)cc4)nc32)c1 [Compound 018]  EGFR-L858R/T790M (Homo sapiens (Human), UniProt P00533, L858R/T790M)              IC50                    =            3.02
3  CN(C)C/C=C/C(=O)Nc1ccc(-n2c(=O)cnc3cnc(Nc4ccccc4)nc32)cc1 [Compound 012]  EGFR-L858R/T790M (Homo sapiens (Human), UniProt P00533, L858R/T790M)              IC50                    =            1920
4  C=CC(=O)Nc1ccc(-n2c(=O)cnc3cnc(Nc4ccccc4)nc32)cc1 [Compound 014]  EGFR-L858R/T790M (Homo sapiens (Human), UniProt P00533, L858R/T790M)              IC50                    =             113
5  COc1ccc(Nc2ncc3ncc(=O)n(-c4ccc(N)cc4)c3n2)cc1 [Compound 001]  EGFR-L858R/T790M (Homo sapiens (Human), UniProt P00533, L858R/T790M)              IC50                    >           10000

* * *

// reported IC50 per item
target: EGFR-L858R (Homo sapiens (Human), UniProt P00533, L858R); assay: In vitro EGFR kinase activity assay (Z'-Lyte); assay type: biochemical; details: read-out: Inhibitory activity on EGFR kinase (IC50, nM) L858R
Sequence (P00533 25-1210 L858R): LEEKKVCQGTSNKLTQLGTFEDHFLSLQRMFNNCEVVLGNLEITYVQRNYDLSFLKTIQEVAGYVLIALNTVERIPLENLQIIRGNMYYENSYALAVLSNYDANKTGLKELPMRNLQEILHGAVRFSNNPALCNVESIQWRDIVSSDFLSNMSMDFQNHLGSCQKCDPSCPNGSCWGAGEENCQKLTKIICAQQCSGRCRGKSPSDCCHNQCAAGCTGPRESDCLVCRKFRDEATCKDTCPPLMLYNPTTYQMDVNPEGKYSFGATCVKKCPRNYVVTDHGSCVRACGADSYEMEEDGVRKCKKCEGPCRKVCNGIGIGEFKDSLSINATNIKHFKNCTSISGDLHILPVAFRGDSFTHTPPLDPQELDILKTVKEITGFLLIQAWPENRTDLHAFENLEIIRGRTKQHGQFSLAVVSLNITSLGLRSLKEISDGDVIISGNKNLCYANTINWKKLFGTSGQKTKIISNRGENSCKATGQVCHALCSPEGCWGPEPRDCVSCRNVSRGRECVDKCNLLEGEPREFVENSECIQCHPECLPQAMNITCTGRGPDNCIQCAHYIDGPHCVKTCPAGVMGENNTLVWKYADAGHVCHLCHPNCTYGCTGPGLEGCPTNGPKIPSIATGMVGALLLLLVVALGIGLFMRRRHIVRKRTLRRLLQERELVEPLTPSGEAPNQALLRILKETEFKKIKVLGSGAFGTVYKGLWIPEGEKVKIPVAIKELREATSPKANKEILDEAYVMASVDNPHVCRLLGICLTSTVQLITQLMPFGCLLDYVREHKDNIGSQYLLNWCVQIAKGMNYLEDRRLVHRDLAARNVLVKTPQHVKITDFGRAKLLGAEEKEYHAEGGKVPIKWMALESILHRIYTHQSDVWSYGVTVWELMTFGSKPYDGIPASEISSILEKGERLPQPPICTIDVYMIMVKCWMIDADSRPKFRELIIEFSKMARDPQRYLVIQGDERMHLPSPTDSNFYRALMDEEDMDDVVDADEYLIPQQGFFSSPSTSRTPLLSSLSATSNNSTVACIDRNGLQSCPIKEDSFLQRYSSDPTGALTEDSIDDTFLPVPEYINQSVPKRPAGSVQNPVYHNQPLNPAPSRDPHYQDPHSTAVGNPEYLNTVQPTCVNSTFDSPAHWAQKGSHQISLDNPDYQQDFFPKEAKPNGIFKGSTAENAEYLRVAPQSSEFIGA
MEASUREMENT NAME: IC50 (nM)

> print(dat)
                           structure.smiles  measurement.unit  reported.value
1  COc1ccc(-n2c(=O)cnc3cnc(Nc4cccc(N)c4)nc32)cc1                nM           18900
2  C=CC(=O)Nc1cccc(-n2c(=O)cnc3cnc(Nc4ccc(N5CCN(C)CC5)cc4OC)nc32)c1                nM            2.36
3  C=CC(=O)Nc1cccc(-n2c(=O)cnc3cnc(Nc4ccc(C(N)=O)cc4)nc32)c1                nM            9.64
4  C=CC(=O)Nc1ccc(-n2c(=O)c(C)nc3cnc(Nc4ccc(OC)cc4)nc32)cc1                nM            4880
5  C=CC(=O)Nc1cccc(-n2c(=O)cnc3cnc(Nc4ccc(Cl)cc4)nc32)c1                nM            84.8
6  COc1ccc(Nc2ncc3ncc(=O)n(-c4cccc(N)c4)c3n2)cc1                nM           87200
7  COc1ccc(Nc2ncc3ncc(=O)n(-c4cccc(NC(=O)/C=C/CN(C)C)c4)c3n2)cc1                nM            6080
8  C=CC(=O)Nc1cccc(-n2c(=O)cnc3cnc(Nc4ccc(N(CC)CC)cc4)nc32)c1                nM            16.3

* * *

molecular target: FLT3 (Homo sapiens (Human)); test: FLT3 kinase activity assay (Caliper); format: biochemical; details: read-out: Inhibitory activity on kinase (IC50, nM) FLT3
Measured IC50, listed per entry for reference.
MEASUREMENT NAME: IC50 (nM)

> print(dat)
                           structure.smiles  reported.value
1  C=CC(=O)Nc1ccc(-n2c(=O)cnc3cnc(Nc4ccc(Cl)cc4)nc32)cc1             358
2  C=CC(=O)Nc1ccc(-n2c(=O)c(C)nc3cnc(Nc4ccc(OC)cc4)nc32)cc1             206
3  C=CC(=O)Nc1cccc(-n2c(=O)c(C)nc3cnc(Nc4ccc(OC)cc4)nc32)c1             568
4  COc1ccc(Nc2ncc3ncc(=O)n(-c4ccc(NC(=O)/C=C/CN(C)C)cc4)c3n2)cc1             152
5  CN(C)C/C=C/C(=O)Nc1ccc(-n2c(=O)cnc3cnc(Nc4ccccc4)nc32)cc1             160
6  C=CC(=O)Nc1cccc(-n2c(=O)cnc3cnc(Nc4ccc(N(CC)CC)cc4)nc32)c1            1760
7  C=CC(=O)Nc1cccc(Nc2ncc3ncc(=O)n(-c4ccc(OC)cc4)c3n2)c1             119
8  C=CC(=O)Nc1ccc(-n2c(=O)cnc3cnc(Nc4ccc(N5CCN(C)CC5)cc4OC)nc32)cc1             180
